system: Heart; test: Inhibition of force of contraction in Hoplobatrachus tigerinus (frog) heart at log dose 2.6; assay type: functional
Binary call on inhibition (INH): Yes from 20% upward, No beneath that.

>>> print(df.to_string())
                                   compound  discrete_label
0  CCOC(=O)C1=C(C)N(CC(O)COc2ccc(/C=N/C(=S)Nc3ccc(OC)cc3)cc2)C(=S)NC1c1ccccc1[N+](=O)[O-] (configuration not stated)             Yes
1  CCOC(=O)C1=C(C)N(CC(O)COc2ccc(/C=N/C(=S)Nc3ccc(Cl)cc3)cc2)C(=S)NC1c1cccc([N+](=O)[O-])c1 (configuration not stated)              No
2  CCOC(=O)C1=C(C)N(CC(O)COc2ccc(/C=N/C(=S)Nc3ccccc3OC)cc2)C(=S)NC1c1cccc([N+](=O)[O-])c1 (configuration not stated)             Yes

Item CCOC(=O)C1=C(C)N(CC(O)COc2ccc(/C=N/C(=S)Nc3ccc(OC)cc3)cc2)C(=S)NC1c1cccc([N+](=O)[O-])c1 (configuration not stated) with inhibition (INH) of 20% or above?
Yes

Item CCOC(=O)C1=C(C)N(CC(O)COc2ccc(/C=N/C(=S)Nc3ccc(C(=O)O)cc3)cc2)C(=S)NC1c1cccc([N+](=O)[O-])c1 (configuration not stated) with inhibition (INH) of 20% or above?
Yes

Item CCOC(=O)C1=C(C)N(CC(O)COc2ccc(/C=N/C(=S)Nc3ccc(Cl)cc3)cc2)C(=S)NC1c1ccccc1[N+](=O)[O-] (configuration not stated) with inhibition (INH) of 20% or above?
No

###

system: Rattus norvegicus; assay: Toxicity in Rattus norvegicus Wistar (rat) assessed as Rmax at 40 mg/kg, ip measured after 60 min by ECG analysis (reference value: 0.07 +/- 0.004 mv); assay type: organism-based; parameters: dose 40 mg/kg, route intraperitoneal; details: in vivo, 1 h
readout: Activity (mV)
Quick reminder: number only, in mV, skip the unit.

Field: example entries. Status: answers known.
>>> df
                                   molecule  meas_value
0  CCOC(=O)C1=C(C)N(CC(O)COc2ccc(/C=N/C(=S)Nc3ccc(Cl)cc3)cc2)C(=S)NC1c1cccc([N+](=O)[O-])c1 (stereo unspecified)        0.07
1  CCOC(=O)C1=C(C)N(CC(O)COc2ccc(/C=N/C(=S)Nc3ccccc3OC)cc2)C(=S)NC1c1cccc([N+](=O)[O-])c1 (stereo unspecified)        0.19
2  CCOC(=O)C1=C(C)N(CC(O)COc2ccc(/C=N/C(=S)Nc3ccc(OC)cc3)cc2)C(=S)NC1c1ccccc1[N+](=O)[O-] (stereo unspecified)        0.13
3  CCOC(=O)C1=C(C)N(CC(O)COc2ccc(/C=N/C(=S)Nc3ccc(Cl)cc3)cc2)C(=S)NC1c1ccccc1[N+](=O)[O-] (stereo unspecified)        0.09
4  CCOC(=O)C1=C(C)N(CC(O)COc2ccc(/C=N/C(=S)Nc3ccccc3OC)cc2)C(=S)NC1c1ccccc1[N+](=O)[O-] (stereo unspecified)        0.13

Here's the next entry for you.
Sample CCOC(=O)C1=C(C)N(CC(O)COc2ccc(/C=N/C(=S)Nc3ccc(OC)cc3)cc2)C(=S)NC1c1cccc([N+](=O)[O-])c1 (stereo unspecified) ; Activity observed: 0.14

###

test system: Rattus norvegicus; experiment: Toxicity in Rattus norvegicus Wistar (rat) assessed as heart rate at 40 mg/kg, ip measured after 60 min by ECG analysis (reference value: 307.62 +/- 0.053 bpm); format: organism-based; set-up: dose 40 mg/kg, route intraperitoneal; settings: in vivo, 1 h
hey, just use T if measured Activity is less than 300 bpm, otherwise F

>>> df
                                   compound  discrete_label
0  CCOC(=O)C1=C(C)N(CC(O)COc2ccc(/C=N/C(=S)Nc3ccc(OC)cc3)cc2)C(=S)NC1c1ccccc1[N+](=O)[O-] (stereo unspecified)               T

A record lists CCOC(=O)C1=C(C)N(CC(O)COc2ccc(/C=N/C(=S)Nc3ccccc3OC)cc2)C(=S)NC1c1ccccc1[N+](=O)[O-] (stereo unspecified) . Is its Activity below 300 bpm?
T

###

system: Rattus norvegicus; experiment: Toxicity in Rattus norvegicus Wistar (rat) assessed as Rmax at 40 mg/kg, ip measured after 30 min by ECG analysis (reference value: 0.08 +/- 0.008 mv); type: organism-based; design: dose 40 mg/kg, route intraperitoneal; conditions: in vivo, 0.5 h
Binary call on Activity: TRUE from 0.08 mV upward, FALSE beneath that.

>>> print(df.to_string())
                                   compound  discrete_label
0  CCOC(=O)C1=C(C)N(CC(O)COc2ccc(/C=N/C(=S)Nc3ccc(OC)cc3)cc2)C(=S)NC1c1cccc([N+](=O)[O-])c1 (stereo unspecified)           FALSE

Item CCOC(=O)C1=C(C)N(CC(O)COc2ccc(/C=N/C(=S)Nc3ccccc3OC)cc2)C(=S)NC1c1ccccc1[N+](=O)[O-] (stereo unspecified) with Activity of 0.08 mV or above?
TRUE

Item CCOC(=O)C1=C(C)N(CC(O)COc2ccc(/C=N/C(=S)Nc3ccc(OC)cc3)cc2)C(=S)NC1c1ccccc1[N+](=O)[O-] (stereo unspecified) with Activity of 0.08 mV or above?
TRUE

Item CCOC(=O)C1=C(C)N(CC(O)COc2ccc(/C=N/C(=S)Nc3ccc(Cl)cc3)cc2)C(=S)NC1c1cccc([N+](=O)[O-])c1 (stereo unspecified) with Activity of 0.08 mV or above?
FALSE

###

test system: Rattus norvegicus; test: Toxicity in Rattus norvegicus Wistar (rat) assessed as heart rate at 40 mg/kg, ip measured after 45 min by ECG analysis (reference value: 307.62 +/- 0.023 bpm); format: organism-based; set-up: dose 40 mg/kg, route intraperitoneal; details: in vivo, 0.75 h
readout: Activity (bpm)
Quick reminder: number only, in bpm, skip the unit.

Field: example entries. Status: answers known.
                                   molecule   readout  meas_value
0  CCOC(=O)C1=C(C)N(CC(O)COc2ccc(/C=N/C(=S)Nc3ccccc3OC)cc2)C(=S)NC1c1cccc([N+](=O)[O-])c1 (stereo unspecified)  Activity      214.17
1  CCOC(=O)C1=C(C)N(CC(O)COc2ccc(/C=N/C(=S)Nc3ccc(Cl)cc3)cc2)C(=S)NC1c1ccccc1[N+](=O)[O-] (stereo unspecified)  Activity      324.05
2  CCOC(=O)C1=C(C)N(CC(O)COc2ccc(/C=N/C(=S)Nc3ccc(Cl)cc3)cc2)C(=S)NC1c1cccc([N+](=O)[O-])c1 (stereo unspecified)  Activity      299.78
3  CCOC(=O)C1=C(C)N(CC(O)COc2ccc(/C=N/C(=S)Nc3ccccc3OC)cc2)C(=S)NC1c1ccccc1[N+](=O)[O-] (stereo unspecified)  Activity      266.08
4  CCOC(=O)C1=C(C)N(CC(O)COc2ccc(/C=N/C(=S)Nc3ccc(OC)cc3)cc2)C(=S)NC1c1ccccc1[N+](=O)[O-] (stereo unspecified)  Activity      266.41

Here's the next entry for you.
Record CCOC(=O)C1=C(C)N(CC(O)COc2ccc(/C=N/C(=S)Nc3ccc(OC)cc3)cc2)C(=S)NC1c1cccc([N+](=O)[O-])c1 (stereo unspecified) / Rattus norvegicus, Activity recorded as 300.22

###

As shown below, each of these molecules has a reported Activity value.
system: Rattus norvegicus; assay: Toxicity in Rattus norvegicus Wistar (rat) assessed as heart rate at 40 mg/kg, ip measured after 30 min by ECG analysis (reference value: 307.62 +/- 0.439 bpm); type: organism-based; set-up: dose 40 mg/kg, route intraperitoneal; settings: in vivo, 0.5 h
Quick reminder: number only, in bpm, skip the unit.

Field: example entries. Status: answers known.
>>> print(df.to_string())
                                   molecule  meas_value
0  CCOC(=O)C1=C(C)N(CC(O)COc2ccc(/C=N/C(=S)Nc3ccc(Cl)cc3)cc2)C(=S)NC1c1ccccc1[N+](=O)[O-] (stereo unspecified)      324.05
1  CCOC(=O)C1=C(C)N(CC(O)COc2ccc(/C=N/C(=S)Nc3ccc(OC)cc3)cc2)C(=S)NC1c1cccc([N+](=O)[O-])c1 (stereo unspecified)      315.87
2  CCOC(=O)C1=C(C)N(CC(O)COc2ccc(/C=N/C(=S)Nc3ccccc3OC)cc2)C(=S)NC1c1ccccc1[N+](=O)[O-] (stereo unspecified)      266.08
3  CCOC(=O)C1=C(C)N(CC(O)COc2ccc(/C=N/C(=S)Nc3ccc(OC)cc3)cc2)C(=S)NC1c1ccccc1[N+](=O)[O-] (stereo unspecified)      272.19
4  CCOC(=O)C1=C(C)N(CC(O)COc2ccc(/C=N/C(=S)Nc3ccccc3OC)cc2)C(=S)NC1c1cccc([N+](=O)[O-])c1 (stereo unspecified)      226.62

Here's the next entry for you.
Sample CCOC(=O)C1=C(C)N(CC(O)COc2ccc(/C=N/C(=S)Nc3ccc(Cl)cc3)cc2)C(=S)NC1c1cccc([N+](=O)[O-])c1 (stereo unspecified) ; Activity observed: 323.85

src = ChEMBL document CHEMBL3046778
